- compound: "Cc1c(C)n(CC2CC2)c2c(CCc3ccc(F)cc3F)nncc12"
  melting point: "159 to 160 °C"
- compound: "CC(C)(C)OC(=O)NC1CCCCCC=CC2CC2(C(=O)NS(=O)(=O)C2CC2)NC(=O)C2CC(OC(=O)c3ccc(F)cc3)CN2C1=O (stereo not drawn)"
  melting point: "154 to 156 °C"
- compound: "O=C(NCCc1ccc(Cl)cc1)C1=C(NCCc2ccc(Cl)cc2)CS(=O)(=O)N(Cc2ccc(Cl)c(Cl)c2)c2ccccc21"
  melting point: "119 to 121 °C"
- compound: "O=C1N=C(Cc2c[nH]c3ccccc23)C(CCc2cc(C(F)(F)F)cc(C(F)(F)F)c2)O1 (stereo not drawn)"
  melting point: "178 to 180 °C"
- compound: "COC(=O)CC[C@H](NC(=O)c1ccc(C#Cn2cnc3nc(NC(=O)C(C)(C)C)cc-3c2O)cc1)C(=O)OC"
  melting point: "280 to 285 °C"
- compound: "CCCc1nn(-c2ccc(C(F)(F)F)cn2)cc1CCCCOc1nn(C)cc1CC(=O)O"
  melting point: "95 to 97 °C"
- compound: "O=C(O)C(Oc1ccccc1)c1ccc(Oc2ccccc2)cc1 (stereo not drawn)"
  melting point: "144 to 146 °C"
- compound: "Cc1c(-c2ccccc2)n(-c2ccc(S(C)=O)cc2)c(-c2ccccc2)cc1=O (stereo not drawn)"
  melting point: "242 to 244 °C"
